# Test system: SF-539 CNS
# protocol description: NCI tumour cell line growth inhibition, 48 h
compounds and their reported log10(TGI)
attribute measured: log10(TGI) (log10 of the value in µM)

> print(dat)
                                   compound  readout.number
1  COc1cc2c(/C=C3/C(=O)Nc4ccc(O)cc43)c(Cl)[nH]c2cc1C           -0.73
2  O=C(CCN1CCCCC1)Nc1ccc2sc3ccccc3c(=O)c2n1            1.50
3  CCCCCCCCCCCc1noc2c1C(=O)C(O)CC2 (centres undefined)            1.74
4  N#Cc1c(-c2ccc(Cl)cc2)cc(-c2ccc(Nc3ccnc4cc(C(F)(F)F)ccc34)cc2)nc1N            1.52
5  CC(C)(C)c1cc(Cc2ccc([N+](C)(C)C)cc2)c(O)c(C(C)(C)C)c1            1.48
